Measured values drawn from the supplement of paper PMC10567573 for this set.

B1: CDS2 (parent)
chain: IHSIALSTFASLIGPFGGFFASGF

# Variants of: B1
# assay details: protein stability index of a GFP-peptide fusion (GPS, HEK-293T) (PSI 1-6); higher = more stable;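 further: lentivirally expressed fusions sorted by FACS into six bins by GFP to DsRed ratio, PSI derived from sequencing read proportions per bin multiplied by bin number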
# measurement setup: c terminus: a fixed tail appended
Provide the reported protein stability index of each item.
Number only, no unit.

# protein stability index (variant: L12E ) is 2.51

# protein stability index (variant: F20C ) is 4.04

# protein stability index (variant: A21L ) is 2.75

# protein stability index (variant: I4P ) is 3.8

# protein stability index (variant: G17I ) is 2.98

# protein stability index (variant: S3F ) is 3.44

# protein stability index (variant: I1E ) is 4.34

# protein stability index (variant: F20M ) is 2.88

# protein stability index (variant: T8A ) is 3.48

# protein stability index (variant: G14P ) is 2.67

# protein stability index (variant: F19S ) is 2.78

# protein stability index (variant: I13F ) is 3.52

# protein stability index (variant: A10D ) is 3.54

# protein stability index (variant: S22N ) is 2.57

# protein stability index (variant: G14Q ) is 2.15

# protein stability index (variant: L6P ) is 2.23

# protein stability index (variant: H2Q ) is 2.43

# protein stability index (variant: F24H ) is 3.27

# protein stability index (variant: P15D ) is 3.92

# protein stability index (variant: G23T ) is 2.53

# protein stability index (variant: G14W ) is 1.74

# protein stability index (variant: L12D ) is 3.44

# protein stability index (variant: P15C ) is 2.62

# protein stability index (variant: S7F ) is 3.48

# protein stability index (variant: S11C ) is 2.7

# protein stability index (variant: L6W ) is 2.43

# protein stability index (variant: A21C ) is 3.33

# protein stability index (variant: S3E ) is 3.44

# protein stability index (variant: L6M ) is 4.1

# protein stability index (variant: I1P ) is 3.96

# protein stability index (variant: S11D ) is 2.9

# protein stability index (variant: I1K ) is 2.65

# protein stability index (variant: A21D ) is 4.2

# protein stability index (variant: I1Q ) is 1.48

# protein stability index (variant: P15G ) is 3.77

# protein stability index (variant: A5G ) is 2.93

# protein stability index (variant: L6Y ) is 3.33

# protein stability index (variant: F19W ) is 3.48

# protein stability index (variant: A21F ) is 2.83

# protein stability index (variant: H2M ) is 2.79

# protein stability index (variant: F9G ) is 2.44

# protein stability index (variant: F24A ) is 2.18

# protein stability index (variant: H2A ) is 2.61

# protein stability index (variant: F16P ) is 2.02

# protein stability index (variant: I1N ) is 2.63

# protein stability index (variant: S22D ) is 2.53
